All values here come from patent US11739070B2.

Molecular target: UniProt P21730
Sequence (P21730 1-350): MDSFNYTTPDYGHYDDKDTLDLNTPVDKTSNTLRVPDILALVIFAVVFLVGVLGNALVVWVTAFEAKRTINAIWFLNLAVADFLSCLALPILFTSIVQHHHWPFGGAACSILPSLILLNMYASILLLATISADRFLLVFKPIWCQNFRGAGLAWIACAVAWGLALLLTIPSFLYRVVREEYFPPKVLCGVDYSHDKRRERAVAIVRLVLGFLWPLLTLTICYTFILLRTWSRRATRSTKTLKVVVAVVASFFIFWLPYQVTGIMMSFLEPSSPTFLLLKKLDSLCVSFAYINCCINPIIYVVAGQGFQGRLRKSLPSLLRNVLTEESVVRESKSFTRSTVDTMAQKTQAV
Test: hC5a DISCO IC50 assay (PathHunter beta-arrestin, antagonist mode)
Conditions: CHO-K1 C5AR1 beta-arrestin cell line; antagonist vs 1-10 nM C5a agonist; geometric mean values; read-out: C5aR IC50
pIC50: −log10 of the molar value.
endpoint: pIC50

Examples from the recorded data:
molecule: COc1cccc2c1n(Cc1ccccc1C(F)(F)F)c(=O)n2[C@@H]1CCN(C(=O)OC2(C(F)(F)F)COC2)C1 [Example 86]
pIC50: 6.64
--
molecule: COc1cccc2c1n(Cc1ccccc1C(F)(F)F)c(=O)n2C1CCCN(c2c(C)cccc2C)CC1 (stereo not drawn) [Example 185]
pIC50: 7.44
--
molecule: COc1cccc2c1n(Cc1ccccc1C(F)(F)F)c(=O)n2C1CCCN(c2c(C)cccc2C)C1 (stereo not drawn) [Example 217]
pIC50: 6.80
--
molecule: COc1cccc2c1n(Cc1ccccc1C(F)(F)F)c(=O)n2C1CCCN(c2c(C)cccc2F)C1 (stereo not drawn) [Example 212]
pIC50: 5.68
--
molecule: Cc1cccc(F)c1N1CC[C@@H](n2c(=O)n(Cc3ccccc3C(F)(F)F)c3c(O)cccc32)C1 [Example 40]
pIC50: 8.22

a: COc1cccc2c1n(Cc1ccccc1C(F)(F)F)c(=O)n2[C@@H]1CCN(c2c(F)cccc2CN2CCC2)C1 [Example 108]
b: Cc1cccc(C)c1N1CC[C@@H](n2c(=O)n(Cc3ccccc3C(F)(F)F)c3c(OCCO)cccc32)C1 [Example 52]
Q: Which value of pIC50 is numerically greater: that of a or that of b ? Response format: the label of the selected entry.
Ans: b
(b: 7.52, a: 6.44)

A: COc1ccnc(C)c1N1CCC(n2c(=O)n(Cc3ccccc3C(F)(F)F)c3c(OC)cccc32)CC1 [Example 247]
B: COc1cccc2c1n(Cc1ncccc1C(F)(F)F)c(=O)n2C1CCN(c2c(F)cccc2F)CC1 [Example 76]
Q: Field: entry with larger pIC50 (options A / B ). Selection: enter the item's label.
Ans: B
(B: 7.42, A: 6.25)

A: COc1ncnc(C)c1N1CCC(n2c(=O)n(Cc3ccccc3C(F)(F)F)c3c(OC)cccc32)CC1 [Example 249]
B: COc1cccc2c1n(Cc1ccccc1OC(F)(F)F)c(=O)n2[C@@H]1CCN(c2c(C)cccc2C)C1 [Example 22]
C: COc1ccccc1Cn1c(=O)n([C@@H]2CCN(c3c(F)cccc3C#N)C2)c2ncnc(OC)c21 [Example 105]
D: COc1cccc2c1n(Cc1nccnc1C(F)(F)F)c(=O)n2[C@@H]1CCN(c2c(C)cccc2F)C1 [Example 167]
E: COc1nccc2c1n(Cc1ccccc1C(F)(F)F)c(=O)n2[C@@H]1CCN(c2c(C)ccnc2F)C1 [Example 48]
Q: Hi! Can you put these in order of pIC50, lowest number first? Please list each label once, in the requested order.
Ans: C, A, E, B, D

---

Target: C5AR1 (Homo sapiens, UniProt P21730)
Assay: hC5a DISCO IC50 assay (PathHunter beta-arrestin, antagonist mode)
Conditions: CHO-K1 C5AR1 beta-arrestin cell line; antagonist vs 1-10 nM C5a agonist; geometric mean values; read-out: C5aR IC50
Protocol: II. Biological Assays In Vitro Assay hC5a DISCO IC50 Assay 5 μl Antagonist at 6-fold end concentration or DMSO control is added to assay medium and subsequently 5 μl 1-10 nM C5a agonist at 6 fold end concentration. […] Plates are centrifuged for 1 min at 1000 rpm and incubated for 45 minutes at RT before being measured on a Fluostar Optima, BMG Labtech. IC50 values are calculated from a serial dilution range of antagonist using inhouse software and given in nmol/l. […]
pIC50: −log10 of the molar value.
endpoint: pIC50

Here are 2 compounds together with their reported answers.
input smiles: COc1cccc2c1n(Cc1cncnc1C(F)(F)F)c(=O)n2[C@@H]1CCN(c2c(F)cccc2C#N)C1
measured on: C5AR1 (Homo sapiens, UniProt P21730)
pIC50: 6.67
//
input smiles: COc1cccc2c1n(Cc1sc(C)nc1C(F)(F)F)c(=O)n2[C@@H]1CCN(c2c(C)cccc2F)C1
measured on: C5AR1 (Homo sapiens, UniProt P21730)
pIC50: 6.76

a: COCCOc1ccccc1N1CC[C@@H](n2c(=O)n(Cc3ccccc3C(F)(F)F)c3c(OC)cccc32)C1
b: CCCCOC(=O)N1CC[C@@H](n2c(=O)n(Cc3ccccc3C(F)(F)F)c3c(OC)cccc32)C1
Q: Two entries are listed, a and b . Which one carries the higher pIC50? Write down the label of the entry you select.
Ans: a
(a: 7.52, b: 7.00)

a: COc1cccc2c1n(Cc1cccnc1C(F)(F)F)c(=O)n2C1CCN(c2c(C)cccc2C)CC1
b: COc1cccc2c1n(Cc1cccnc1C(F)(F)F)c(=O)n2[C@@H]1CCN(c2c(C)cccc2F)C1
c: Cc1cccc(F)c1N1CC[C@@H](n2c(=O)n(Cc3ccccc3C(F)(F)F)c3c(N4CCN(C)CC4)nccc32)C1
Q: List from greatest to least pIC50. Labels, requested order.
Ans: b, a, c
(b: 7.70, a: 7.37, c: 5.64)

---

Target: UniProt:P21730
Assay: hC5a DISCO IC50 assay (PathHunter beta-arrestin, antagonist mode)
Settings: CHO-K1 C5AR1 beta-arrestin cell line; antagonist vs 1-10 nM C5a agonist; geometric mean values; read-out: C5aR IC50
endpoint: IC50 (nM)

molecule: [2H]c1ccc(OC)c2c1n(C1CCN(c3c(C)cccc3C)CC1)c(=O)n2Cc1ccccc1C(F)(F)F
IC50, nM: 23
--
molecule: COc1cccc2c1n(Cc1ccccc1C(F)(F)F)c(=O)n2[C@@H]1CCN(C(=O)c2ccccc2)C1
IC50, nM: 3340
--
molecule: COc1cccc2c1n(Cc1ccccc1C(F)(F)F)c(=O)n2[C@@H]1CCN(c2c(F)cccc2N2CCOCC2)C1
IC50, nM: 69

a: COc1ccccc1Cn1c(=O)n([C@@H]2CCN(c3c(F)cccc3C#N)C2)c2cccc(OC)c21
b: N#Cc1cccc(F)c1N1CC[C@@H](n2c(=O)n(Cc3ccccc3C(F)(F)F)c3c(C(=O)NCCO)cccc32)C1
Q: Sort a and b by IC50 descending and give the first. State your choice using its label.
Ans: b
(b: 632 nM, a: 61 nM)

---

Biological target: C5AR1 (Homo sapiens, UniProt P21730)
Assay: hC5a DISCO IC50 assay (PathHunter beta-arrestin, antagonist mode)
Conditions: CHO-K1 C5AR1 beta-arrestin cell line; antagonist vs 1-10 nM C5a agonist; geometric mean values; read-out: C5aR IC50
pIC50: −log10 of the molar value.
endpoint: pIC50

For orientation, consider the following solved cases.
compound: COc1cccc2c1n(Cc1ccccc1C(F)(F)F)c(=O)n2[C@@H]1CCN(c2c(F)cccc2C#N)C1
pIC50: 7.55

compound: COc1cccc2c1n(Cc1ccccc1C(F)(F)F)c(=O)n2[C@@H]1CCN(c2nnc(C(C)C)o2)C1
pIC50: 5.55

compound: COc1cccnc1N1CCC(n2c(=O)n(Cc3ccccc3C(F)(F)F)c3c(OC)cccc32)CC1
pIC50: 6.71

A: COc1cccc2c1n(Cc1ccccc1C(F)(F)F)c(=O)n2[C@@H]1CCN(c2c(F)cccc2CN2CCC(O)CC2)C1
B: COc1cccc2c1n(Cc1nccnc1C(F)(F)F)c(=O)n2[C@@H]1CCN(c2c(F)cccc2C#N)C1
C: COc1cccc2c1n(Cc1ccccc1OC(C)C)c(=O)n2[C@@H]1CCN(c2c(C)cccc2F)C1
D: COc1cccc2c1n(Cc1ccccc1OC1COC1)c(=O)n2C1CCN(c2c(C)cccc2F)CC1
E: COc1cccc2c1n(Cc1ccccc1C(F)(F)F)c(=O)n2C1CCN(c2ccccc2OCc2ccccc2)CC1
Q: Ascending sort, pIC50. Write the labels out in the order the request specifies.
Ans: A, B, E, D, C
(A: 5.64, B: 6.58, E: 7.18, D: 7.40, C: 8.22)

---

Molecular target: C5AR1 (Homo sapiens, UniProt P21730)
Sequence (P21730 1-350): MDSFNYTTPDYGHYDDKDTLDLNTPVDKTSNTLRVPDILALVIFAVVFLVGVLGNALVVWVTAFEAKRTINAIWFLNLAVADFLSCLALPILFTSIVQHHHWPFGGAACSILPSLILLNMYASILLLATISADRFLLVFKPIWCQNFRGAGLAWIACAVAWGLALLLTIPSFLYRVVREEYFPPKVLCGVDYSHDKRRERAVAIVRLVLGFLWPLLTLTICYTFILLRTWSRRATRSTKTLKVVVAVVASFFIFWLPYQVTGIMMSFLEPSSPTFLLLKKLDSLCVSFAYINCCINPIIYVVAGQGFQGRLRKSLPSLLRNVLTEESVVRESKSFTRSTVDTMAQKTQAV
Test: hC5a DISCO IC50 assay (PathHunter beta-arrestin, antagonist mode)
Conditions: CHO-K1 C5AR1 beta-arrestin cell line; antagonist vs 1-10 nM C5a agonist; geometric mean values; read-out: C5aR IC50
Description: II. Biological Assays In Vitro Assay hC5a DISCO IC50 Assay 5 μl Antagonist at 6-fold end concentration or DMSO control is added to assay medium and subsequently 5 μl 1-10 nM C5a agonist at 6 fold end concentration. […] Plates are centrifuged for 1 min at 1000 rpm and incubated for 45 minutes at RT before being measured on a Fluostar Optima, BMG Labtech. IC50 values are calculated from a serial dilution range of antagonist using inhouse software and given in nmol/l. […]
endpoint: IC50 (µM)

In the examples that follow, each entry is paired with its recorded IC50.
input smiles: COc1cncc(OC)c1N1CC[C@@H](n2c(=O)n(Cc3ccccc3C(F)(F)F)c3c(OC)cccc32)C1
IC50, µM: 0.47
--
input smiles: COc1cccc2c1n(Cc1ccccc1C(F)(F)F)c(=O)n2C1CCN(c2ccccc2OC2COC2)CC1
IC50, µM: 0.074
--
input smiles: COc1cccc2c1n(Cc1ccccc1C(F)(F)F)c(=O)n2C1CN(C(=O)OC(C)(C)C)C1
IC50, µM: 0.469
--
input smiles: COc1nccc(C)c1N1CC[C@@H](n2c(=O)n(Cc3ccccc3C(F)(F)F)c3c(OC)cccc32)C1
IC50, µM: 0.008
--
input smiles: COc1cccc2c1n(Cc1ccccc1C(F)(F)F)c(=O)n2C1CN(c2c(C)cccc2F)C1
IC50, µM: 0.027

a: N#Cc1cccc(F)c1N1CC[C@@H](n2c(=O)n(Cc3ccccc3C(F)(F)F)c3c(CO)cccc32)C1
b: COc1ccnc(OC)c1N1CCC(n2c(=O)n(Cc3ccccc3C(F)(F)F)c3c(OC)cccc32)CC1
c: COc1cccc2c1n(Cc1ccccc1C(F)(F)F)c(=O)n2[C@@H]1CCN(c2c(F)cccc2CO)C1
d: Cc1cccc(F)c1N1CC[C@@H](n2c(=O)n(Cc3ccccc3C(F)(F)F)c3c(OCCN4CCOCC4)nccc32)C1
Q: Order the records by IC50, with each subsequent value no larger than the one before. Rank them, then answer with their labels in that order.
Ans: a, d, b, c

I: COc1cccc2c1n(Cc1ccccc1C(F)(F)F)c(=O)n2[C@@H]1CCN(c2ccccc2OC(F)(F)F)C1
II: COc1cccc2c1n(Cc1ccccc1C(F)(F)F)c(=O)n2[C@@H]1CCN(c2c(C)cncc2C)C1
Q: Lower value for measured IC50? Options: I , II Your choice should be expressed through its label.
Ans: I

P: COc1cccc2c1n(Cc1ncccc1OC(C)C)c(=O)n2C1CCN(c2c(C)cccc2F)CC1
Q: COc1cccc(F)c1N1CC[C@@H](n2c(=O)n(Cc3ccccc3C(F)(F)F)c3c(OC)nccc32)C1
Q: Hey, which is lower on measured IC50, P or Q ? Mark your answer with the label of the selected entry.
Ans: P
(P: 0.014 µM, Q: 0.132 µM)

A: COC(=O)c1cccc2c1n(Cc1ccccc1C(F)(F)F)c(=O)n2[C@@H]1CCN(c2c(F)cccc2C#N)C1
B: COc1nccc(C)c1N1CCC(n2c(=O)n(Cc3ccccc3C(F)(F)F)c3c(OC)cccc32)CC1
Q: Param metric = IC50; output whichever of A , B has the minimum value. Write the label of whichever entry you select.
Ans: B
(B: 0.017 µM, A: 0.165 µM)
